Tested on: Kasumi-1 (acute myeloid leukemia M2 type, AML-M2)
Assay: MTT leukemia cell growth inhibition, 72 h
Assay type: cell-based, human
Details: Homo sapiens; Kasumi-1, 72 h; read-out: IC90
Observation Type: IC90 (µg/mL)
Give the value, in units of µg/mL, as a plain number.

Example cases with answers are listed next.
- Compound: "COC(=O)C[C@](O)(CCCC(C)(C)O)C(=O)O[C@@H]1C(OC)=C[C@]23CCCN2CCc2cc4c(cc2[C@H]13)OCO4 [HHT, reference compound]"
  Unit Label: "µg/mL"
  Assay Value: 0.024
- Compound: "COC1=C[C@]23CCCN2CCc2cc4c(cc2[C@@H]3[C@@H]1OC(=O)[C@@](O)(CCCC(C)(C)O)CC(=O)N1CC=CC1)OCO4"
  Unit Label: "µg/mL"
  Assay Value: 2.32
- Compound: "COC1=C[C@]23CCCN2CCc2cc4c(cc2[C@@H]3[C@@H]1OC(=O)[C@@](O)(CCCC(C)(C)O)CC(=O)N1CCC(C#N)CC1)OCO4"
  Unit Label: "µg/mL"
  Assay Value: 2.96
- Compound: "COCCCNC(=O)C[C@](O)(CCCC(C)(C)O)C(=O)O[C@@H]1C(OC)=C[C@]23CCCN2CCc2cc4c(cc2[C@H]13)OCO4"
  Unit Label: "µg/mL"
  Assay Value: 13
- Compound: "COC1=C[C@]23CCCN2CCc2cc4c(cc2[C@@H]3[C@@H]1OC(=O)[C@@](O)(CCCC(C)(C)O)CC(=O)N1CCCCC1)OCO4"
  Unit Label: "µg/mL"
  Assay Value: 16

[ask] Report IC90 on Kasumi-1 (acute myeloid leukemia M2 type, AML-M2) for this entry: `COC1=C[C@]23CCCN2CCc2cc4c(cc2[C@@H]3[C@@H]1OC(=O)[C@@](O)(CCCC(C)(C)O)CC(=O)NCc1ccc(C)o1)OCO4`
[reply] 0.19

[ask] Lab note: record IC90 of `COC1=C[C@]23CCCN2CCc2cc4c(cc2[C@@H]3[C@@H]1OC(=O)[C@@](O)(CCCC(C)(C)O)CC(=O)N1CCN(C(C)C)CC1)OCO4` tested on Kasumi-1 (acute myeloid leukemia M2 type, AML-M2).
[reply] 1.77

[ask] Provide IC90, tested on Kasumi-1 (acute myeloid leukemia M2 type, AML-M2), for `COC1=C[C@]23CCCN2CCc2cc4c(cc2[C@@H]3[C@@H]1OC(=O)[C@@](O)(CCCC(C)(C)O)CC(=O)N1CCN(c2ccc(F)cc2)CC1)OCO4` .
[reply] 2.26

[ask] Determine reported IC90 for COC1=C[C@]23CCCN2CCc2cc4c(cc2[C@@H]3[C@@H]1OC(=O)[C@@](O)(CCCC(C)(C)O)CC(=O)N1CCCCC1C)OCO4 (stereo partly drawn) ; test system: Kasumi-1 (acute myeloid leukemia M2 type, AML-M2).
[reply] 16

[ask] Fill in: IC90 on Kasumi-1 (acute myeloid leukemia M2 type, AML-M2), entry `CCN1CCN(C(=O)C[C@](O)(CCCC(C)(C)O)C(=O)O[C@@H]2C(OC)=C[C@]34CCCN3CCc3cc5c(cc3[C@H]24)OCO5)CC1`
[reply] 15
